These entries and their values trace back to patent US5733913A.

- Tested on: V-src kinase
- TEST NAME: V-src kinase assay
- Format: biochemical
- RECORDED CONDITIONS: at 50 μM
Please go through the items and note down their Inhibition of Protein Tyrosine Kinases, V-src, % Inhibition.
The reply should be a number in %, with the unit left off.

Query: Look at this compound and give its reported Inhibition of Protein Tyrosine Kinases, V-src, % Inhibition. Cc1ccccc1-c1cc2cnc(NC(=O)NC(C)(C)C)nc2nc1NC(=O)NC(C)(C)C [Example 4]
Reply: 3.1

Query: Follow-up item: CCCCNC(=O)Nc1ncc2cc(-c3c(Cl)cccc3Cl)c(NC(=O)NCCCC)nc2n1 [Example 25]
Reply: 0.0

Query: Now give it for COc1cccc(-c2cc3cnc(N)nc3nc2N)c1 [Example 102] too.
Reply: -8.2

Query: Do the same for Cc1cccc(-c2cc3cnc(N)nc3nc2N)c1C [Example 92] please
Reply: -10.1

Query: Quick one: Nc1cc2nc(N)c(-c3c(Cl)cccc3Cl)cc2cn1 [Example 18]
Reply: 21.4

Query: Next up: Nc1ncc2cc(-c3cccnc3)c(N)nc2n1 [Example 107]
Reply: 1.4

Query: Now try Nc1ncc2cc(-c3ccccc3)c(N)nc2n1 [Example 81] .
Reply: -20.3

Query: Also check Cc1cccc(C)c1-c1cc2cnc(N)nc2nc1NC(=O)NC(C)(C)C [Example 6]
Reply: 39.8
